Measured Kd accompanies every entry in the list below.
# Tested On: T1, cynomolgus monkey IL-33 expressed with a C-terminal hexahistidine tag (cynomolgus monkey)
# T1 construct: also called MfIL-33-6His; Mf-IL-33-6His
# T1 chain: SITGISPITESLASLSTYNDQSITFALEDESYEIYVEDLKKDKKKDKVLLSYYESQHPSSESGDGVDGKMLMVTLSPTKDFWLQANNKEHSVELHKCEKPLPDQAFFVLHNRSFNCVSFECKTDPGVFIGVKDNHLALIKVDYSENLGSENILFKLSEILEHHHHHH
# Protocol Description: SPR 37C pH7.4, mAb captured

Name the reported Kd value associated with the binder H4H9662P (antibody, V domains shown, Human IgG4 Fc (H4H)) VH: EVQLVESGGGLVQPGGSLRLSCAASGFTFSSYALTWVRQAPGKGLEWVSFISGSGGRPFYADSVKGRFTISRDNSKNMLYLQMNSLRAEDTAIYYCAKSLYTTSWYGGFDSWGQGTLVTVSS VL: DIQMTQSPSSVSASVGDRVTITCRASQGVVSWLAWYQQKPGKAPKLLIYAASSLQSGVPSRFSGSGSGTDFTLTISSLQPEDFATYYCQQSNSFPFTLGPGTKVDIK
2.24 nM

Return reported Kd; argument: H4H9672P (antibody, human IgG4, V domains shown, Human IgG4 Fc (H4H)) VH: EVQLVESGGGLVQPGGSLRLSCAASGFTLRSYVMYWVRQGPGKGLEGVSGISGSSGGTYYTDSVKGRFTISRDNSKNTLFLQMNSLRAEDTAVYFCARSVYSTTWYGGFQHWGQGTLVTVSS VL: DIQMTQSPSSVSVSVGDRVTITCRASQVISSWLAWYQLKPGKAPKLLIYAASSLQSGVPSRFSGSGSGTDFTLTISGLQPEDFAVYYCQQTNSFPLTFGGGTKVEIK
13.7 nM

# Kd lookup, item H4H9676P (antibody, human IgG4, V domains shown, Human IgG4 Fc (H4H)) VH: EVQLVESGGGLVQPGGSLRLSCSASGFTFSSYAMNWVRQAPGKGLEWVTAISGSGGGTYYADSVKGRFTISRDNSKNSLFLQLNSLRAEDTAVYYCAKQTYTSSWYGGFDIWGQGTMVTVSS VL: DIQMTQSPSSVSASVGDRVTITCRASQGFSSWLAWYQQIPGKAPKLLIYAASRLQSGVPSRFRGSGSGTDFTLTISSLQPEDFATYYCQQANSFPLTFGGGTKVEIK
7.7 nM

Give its Kd value. Item: H1M9566N (antibody, mouse IgG1, V domains shown, Human variable domains, mouse IgG1 Fc (H1M)) VH: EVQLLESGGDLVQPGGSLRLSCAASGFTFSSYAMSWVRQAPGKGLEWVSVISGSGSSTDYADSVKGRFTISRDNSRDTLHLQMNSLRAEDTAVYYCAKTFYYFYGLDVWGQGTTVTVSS VL: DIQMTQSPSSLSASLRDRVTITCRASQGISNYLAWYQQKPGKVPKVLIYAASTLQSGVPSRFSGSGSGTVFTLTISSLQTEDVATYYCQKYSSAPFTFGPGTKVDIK
1 nM

Cited source: patent US20160362487A1
